Quick reference for abundance fitness among some variants
B1: Far upstream element-binding protein 2, residues 142 to 214; numbered along this chain, Q92945 (parent)
chain: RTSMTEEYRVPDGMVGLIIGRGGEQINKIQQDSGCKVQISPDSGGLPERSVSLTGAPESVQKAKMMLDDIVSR

Variants of: B1
Assay: abundance fitness (aPCA) (normalised: wild type 0, dead -1); higher = more abundant; growth selection in yeast, the domain comes from the species named
Conditions: Homo sapiens

Recorded abundance fitness (variant "I29V" ): -0.185

Recorded abundance fitness (variant "E58C" ): -0.305

Recorded abundance fitness (variant "V51L" ): 0.019

Recorded abundance fitness (variant "V60F" ): -0.82

Recorded abundance fitness (variant "P47Q" ): -0.034

Recorded abundance fitness (variant "V51I" ): 0.117

Recorded abundance fitness (variant "K62Y" ): -0.278

Recorded abundance fitness (variant "S33V" ): -0.714

Recorded abundance fitness (variant "G23A" ): -0.149

Recorded abundance fitness (variant "D42E" ): -0.007

Recorded abundance fitness (variant "S52I" ): 0

Recorded abundance fitness (variant "M65A" ): -0.008

Recorded abundance fitness (variant "P57D" ): -0.609

Recorded abundance fitness (variant "I29G" ): -0.856

Recorded abundance fitness (variant "P47K" ): -0.016

Recorded abundance fitness (variant "M65I" ): -0.025

Recorded abundance fitness (variant "G45L" ): -0.193

The measurements presented in this section are drawn from the Human Domainome abundance scans (Beltran et al. 2025).
